test system: BT-549 breast; assay: NCI tumour cell line growth inhibition, 48 h
Reported values of TGI for individual entries

- Compound: "NS(=O)(=O)c1ccc(N=Nc2cc3ccccc3c(C(=O)O)c2O)cc1"
  TGI: "> 100 µM"
- Compound: "C/C(=N/NC(=O)c1ccccc1Nc1ccccc1C(=O)N/N=C(\\C)c1ccc(C)cc1)c1ccc(C)cc1"
  TGI: "> 100 µM"
- Compound: "S=C1NNC(=S)NN1"
  TGI: "> 1 µM"
- Compound: "O=C1CSC2=NC3=C(COC/C3=C\\c3ccc(F)cc3)C(c3ccc(F)cc3)N12 (stereo not given)"
  TGI: "> 100 µM"
- Compound: "COC(=O)CCCCCCCCC(=O)c1c(C)[nH]c(/C=C2\\N=C(c3ccc[nH]3)C=C2OC)c1C"
  TGI: "> 100 µM"

Measured TGI, Cc1nc2ccccc2nc1N1CCCC1 : > 100 µM

----------
system: CCRF-CEM leukemia; test: NCI tumour cell line growth inhibition, 48 h
Quantity Measured: TGI

Examples from the recorded data:
- Compound: "S=C1NNC(=S)NN1"
  TGI: "> 1 µM"
- Compound: "O=C(O)CCC(NC(=O)/C(=C/c1ccccc1)NC(=O)c1ccccc1)C(=O)O (stereo not drawn)"
  TGI: "> 100 µM"
- Compound: "CC(C)(C)C1=CC(O)(c2c3ccccc3c(C3(O)C=C(C(C)(C)C)C(=O)C(C(C)(C)C)=C3)c3ccccc23)C=C(C(C)(C)C)C1=O"
  TGI: "> 100 µM"
- Compound: "C/C(=N\\Nc1nc2ccccc2n1C)c1ccncn1"
  TGI: "> 52.6 µM"
- Compound: "C/C(CC(=O)Nc1cc(Cl)c(Cl)cc1Cl)=N\\NS(=O)(=O)c1ccc(C)cc1"
  TGI: "> 100 µM"
- Compound: "O=C1/C(=C/c2ccc(Cl)cc2)COc2ccc(Br)cc21"
  TGI: "> 100 µM"

Measured TGI, Cn1cc(C2=C(c3cn(C)c4cc(Cl)ccc34)C(=O)NC2=O)c2ccccc21 : > 25 µM

Measured TGI, NC(=O)c1nnc2c(F)cccc2c1N : > 100 µM

Measured TGI, CC1=CCC(=O)[C@]2(C)C(CC(=O)O)[C@]3(C)C4=C(C)C(c5ccoc5)C[C@@H]4O[C@@H]3[C@H](O)[C@@H]12 (stereo partly drawn) : > 100 µM

Measured TGI, CC(C)c1cc(C(C)C)c(B(c2ccccc2)c2ccccc2)c(C(C)C)c1Br : > 100 µM

Measured TGI, Cn1cc(C2=C(c3cccc(Cl)c3)C(=O)NC2=O)c2ccccc21 : > 25 µM

Measured TGI, CCOC(=O)CCC1(C(=O)O[C@@H]2C[C@H](C)CC[C@H]2C(C)C)CCCCC1=O (stereo partly drawn) : > 100 µM

Measured TGI, COc1ccc(C2C3=C(COC3=O)N(CCO)c3cc4c(cc32)CCC4)cc1OC (stereo not drawn) : > 50 µM

----------
Reported values of TGI for individual entries
system: RXF 393 renal; experiment: NCI tumour cell line growth inhibition, 48 h

Examples from the recorded data:
- Compound: "Cc1nc(=O)n2c(c1C(=O)Nc1ccc(Cl)cc1)NCCC2"
  Tested On: "RXF 393 renal"
  Quantity Measured: "TGI"
  Result: "> 100 µM"
- Compound: "CCOc1c(Cc2ccccc2)c(=O)n2c3ccccc3n3c(=O)n(C)c(=O)c1c23"
  Tested On: "RXF 393 renal"
  Quantity Measured: "TGI"
  Result: "> 100 µM"
- Compound: "Cc1nc(C)c(C(=O)NNC(=O)c2ccccc2)cc1C(=O)NNC(=O)c1ccccc1"
  Tested On: "RXF 393 renal"
  Quantity Measured: "TGI"
  Result: "> 100 µM"

Measured TGI, Cc1cccc(-c2cc(=O)c3cc(C)cnc3[nH]2)c1 : > 100 µM

Measured TGI, CO/C=C(/C(=O)OC)c1ccccc1[C@H]1C[C@@H]1c1ccccc1 : > 100 µM

Measured TGI, CC(C)N(C(=O)C12C3C4C5C3C1(C(=O)N(C(C)C)C(C)C)C5C42)C(C)C (centres undefined) : > 100 µM

Measured TGI, O=[P+](O)c1cc2c3ccccc3ccc2c2ccccc12 : > 100 µM

Measured TGI, COc1ccc2c(c1)/C(=N/OC(C)=O)c1c-2c(Nc2ccc(/C(C)=N/OC(C)=O)cc2)nc2ccccc12 : > 100 µM

Measured TGI, Clc1cc(-c2csc(Cl)c2)cs1 : > 100 µM

Measured TGI, O=C1CCc2c(sc3ncnc(Nc4cccc(Br)c4)c23)C1 : 7.51 µM

Measured TGI, CN1CCN(Cc2ccc(NC(=O)c3cncc(C#Cc4cncc5[nH]ncc45)c3)cc2C(F)(F)F)CC1 : 1.95 µM

Measured TGI, N#Cc1nc(-c2ccccn2)c(-c2ccccn2)nc1C#N : 15.9 µM

Measured TGI, CC1C/C(=C\c2ccc(O)c(O)c2)C(=O)/C(=C/c2ccc(O)c(O)c2)C1 (centres undefined) : 14.4 µM

Measured TGI, COc1ccc(C(OCC2OC(n3ccc(Oc4c(F)c(F)c(F)c(F)c4F)nc3=O)CC2OP(OCCC#N)N(C(C)C)C(C)C)(c2ccccc2)c2ccc(OC)cc2)cc1 (centres undefined) : > 100 µM

----------
test system: A498 renal; assay: NCI tumour cell line growth inhibition, 48 h
*1 amine or outer side, *2 acyl side, *3 side chain or, on linkers, in order; H or OH if unused. Where a SMILES comes first, the peptide text is derived from it. [ ]: non-standard residue; d: D form. The star is where a group is joined. X12 = NCCCCC(N[*:1])C(=O)CN1CCCC1C(=O)[*:2]; Pentadecanoyl = CCCCCCCCCCCCCCC(=O)*
Quantity Measured: TGI

Examples from the recorded data:
- Compound: "CCn1c(-c2nonc2N)nc2c(C#CC(C)(C)O)ncc(OCC3CCNCC3)c21"
  TGI: "12.7 µM"
- Compound: "CCCCCCCCCCCCCCC(=O)NC(CCCCN)C(=O)CN1CCCC1C(=O)NCC(=O)NC(Cc1ccccc1)C(=O)N1CCCC1C(=O)NC(CO)C(=O)NC(Cc1ccc(O)cc1)C(=O)NC(CCCCN)C(=O)NC(CC(C)C)C(=O)NC(CCCN=C(N)N)C(=O)N1CCCC1C(=O)NCC(N)=O (stereo unspecified) (Pentadecanoyl-[X12]GFPSYKLRPG-NH2; configuration not given here)"
  TGI: "> 100 µM"
- Compound: "COC(=O)CCCCCCCCC(=O)c1c(C)[nH]c(/C=C2\\N=C(c3ccc[nH]3)C=C2OC)c1C"
  TGI: "> 100 µM"
- Compound: "CCC1C(=O)OCc2c1cc1n(c2=O)Cc2ccccc2-1 (stereo unspecified)"
  TGI: "> 100 µM"
- Compound: "CC(=O)c1c2c(cc3c1CCC3)CCC2"
  TGI: "> 100 µM"

Here is another compound to look at.
Measured TGI, CN1CCN(C2CC(=O)c3c(Cl)sc(Cl)c32)CC1 (stereo unspecified) : > 75 µM

----------
tested on: K-562 leukemia; assay: NCI tumour cell line growth inhibition, 48 h
Reported values of TGI for individual entries

Examples from the recorded data:
- Molecule: "CC(=O)O[C@H]1CC[C@]2(C=O)[C@H]3CC[C@]4(C)[C@@H](C5=CC(=O)OC5)CC[C@]4(O)[C@@H]3CC[C@]2(O)C1"
  Quantity Measured: "TGI"
  Result: "> 100 µM"
- Molecule: "C(=N\\Nc1nnc(-c2nnc(N/N=C/c3ccccc3)o2)o1)/c1ccccc1"
  Quantity Measured: "TGI"
  Result: "> 10 µM"
- Molecule: "O=c1cc(-c2ccccc2)[nH]c2c(F)ccc(F)c12"
  Quantity Measured: "TGI"
  Result: "> 100 µM"

K-562 leukemia data for O=C1CSC(c2cc3cc(Br)ccc3nc2Cl)N1c1ccc(F)c(Cl)c1 (stereo not given) ; its TGI: > 50 µM

K-562 leukemia data for Cc1ccc(S(=O)(=O)N/N=C/CN2C(=O)c3ccccc3C2=O)cc1 ; its TGI: > 100 µM

----------
Reported values of GI50 for individual entries
test system: RXF 393 renal; experiment: NCI tumour cell line growth inhibition, 48 h
*1 amine or outer side, *2 acyl side, *3 side chain or, on linkers, in order; H or OH if unused. Where a SMILES comes first, the peptide text is derived from it. [ ]: non-standard residue; d: D form. The star is where a group is joined. X12 = NCCCCC(N[*:1])C(=O)CN1CCCC1C(=O)[*:2]; Pentadecanoyl = CCCCCCCCCCCCCCC(=O)*

- Compound: "Clc1ccc2c(NCCNc3nc(Cl)nc4ccccc34)ccnc2c1"
  Tested On: "RXF 393 renal"
  Result: "1730 nM"
- Compound: "COc1ccc(C(=O)C(CN(C)C)c2ccccc2)cc1 (stereo not given)"
  Tested On: "RXF 393 renal"
  Result: "1320 nM"
- Compound: "CCn1c(-c2nonc2N)nc2c(C#CC(C)(C)O)ncc(OCC3CCNCC3)c21"
  Tested On: "RXF 393 renal"
  Result: "2540 nM"
- Compound: "CCCCCCCCCCCCCCC(=O)NC(CCCCN)C(=O)CN1CCCC1C(=O)NCC(=O)NC(Cc1ccccc1)C(=O)N1CCCC1C(=O)NC(CO)C(=O)NC(Cc1ccc(O)cc1)C(=O)NC(CCCCN)C(=O)NC(CC(C)C)C(=O)NC(CCCN=C(N)N)C(=O)N1CCCC1C(=O)NCC(N)=O (stereo not given) (Pentadecanoyl-[X12]GFPSYKLRPG-NH2; configuration not given here)"
  Tested On: "RXF 393 renal"
  Result: "26100 nM"

Here is another compound to look at.
Measured GI50, CCN1CCN(c2nc(NNC(=O)c3cccc(OC)c3)nc(N3CCN(C(c4ccccc4)c4ccccc4)CC3)n2)CC1 : 1630 nM
